test system: NCI/ADR-RES ovarian; test: NCI tumour cell line growth inhibition, 48 h
Measured log10 TGI by item
assay-endpoint: log10 TGI (log10 of the value in µM)

• N#CC(C#N)=Cc1ccc(-c2ccc(-c3nc4ccccc4o3)cc2)o1 = 1.70
• C[C@@H](Oc1cc(-c2cnn(C3CC4(CCCNC4)C3)c2)cnc1N)c1c(Cl)ccc(F)c1Cl (stereo partly specified) = 0.75
• CCN(CC)c1ccc2nc3c4ccccc4c(=NC(=O)c4ccccc4-c4c5ccc(N(CC)CC)cc5[o+]c5cc(N(CC)CC)ccc45)cc-3oc2c1 = 1.03
• CNCCOc1nc2c3cnccc3cc(-c3cc(OC)c(OC)c(OC)c3)c2c2ccncc12 = 0.32
• Brc1ccc(Br)nn1 = 0.76

----------
Recorded TGI values for a group of molecules are listed next.
tested on: SNB-75 CNS; assay: NCI tumour cell line growth inhibition, 48 h
assay-endpoint: TGI

• COC1=CC(=O)c2ccccc2C1(C)C1=NC(C)(C)CO1 (configuration not stated) = > 100 µM
• COc1cc(C2C(Cl)C(=O)N2NC(=O)Cc2ccccc2)ccc1O (configuration not stated) = > 100 µM
• Cc1cc(C)c2[s+]snc2c1 = > 100 µM
• CC1CC(NN(C)C)C2(C(N)=O)C(N)=NC(=O)C12C#N (configuration not stated) = > 100 µM
• C=C=[CH][Sn]([c]1ccccc1)([c]1ccccc1)[c]1ccccc1 = 4.72 µM
• CC12OC3CC(O1)C1(C=O)C4CCC5(C)C(c6ccc(=O)oc6)CCC5(O)C4CCC1(C3)O2 (configuration not stated) = 1.03 µM
• NC(N)=NS(=O)(=O)c1ccc(NNc2c3ccccc3nc3c(C(=O)Nc4ccc(S(N)(=O)=O)cc4)cccc23)cc1 = > 100 µM
• CN(NC(=O)c1cccs1)C1=NCCN1 = > 100 µM
• c1ccc2c3nnc(c2c1)SCCSCCCSCCS3 = 18.5 µM
• CCOC(=O)CC(N1CC1)N1CC1 = > 10 µM
• C/C(=N\Nc1cccc(Cl)n1)c1ccccn1 = > 56.9 µM
• COC(=O)Nc1nc2ccc(Sc3ccccc3)cc2[nH]1 = 2.05 µM

----------
tested on: HOP-92 NSCLC; experiment: NCI tumour cell line growth inhibition, 48 h; in the data active means GI50 below about 0.43 µM; inactive means the rest
Possible outcomes: active, inactive

* COc1cc(/C=C/C(=O)c2ccc(Nc3nc(Nc4ccccc4)nc(Nc4ccc(Cl)cc4)n3)cc2)cc(OC)c1OC | inactive
* COc1ccc(-n2sc(=O)n(Cc3ccc(COC(=O)C(C)c4ccc(CC(C)C)cc4)cc3)c2=O)cc1 (centres undefined) | inactive
* CC(C)CNc1nc(N=[N+]=[N-])nc(NCC(C)C)n1 | inactive
* CC(C)[O-].CC(C)[O-].[O-]c1cccc2cccnc12.[O-]c1cccc2cccnc12.[Ti+4] | inactive
* CC(C)N(C[C@H]1O[C@@H](n2cnc3c(N)ncnc32)[C@H](O)[C@@H]1O)C1CC(CCc2nc3ccc(C(C)(C)C)cc3[nH]2)C1 (some centres undefined) | inactive
* CCc1ccccc1-n1c(N)c(C#N)c(-c2ccc(OC)c(OC)c2)c(C#N)c1=O | active
* COc1ccc(C2C3=C(COC3=O)N(CCO)c3cc4c(cc32)OCCO4)cc1OC (centres undefined) | inactive
* O=C(NO)c1cnc(N2CCN(S(=O)(=O)c3ccc4ccccc4c3)CC2)nc1 | active
* CC(=O)/C=C/C1=C(c2ccsc2)c2ccccc2CC1 | inactive

----------
system: HT29 colon; assay: NCI tumour cell line growth inhibition, 48 h
// reported TGI per item
assay-endpoint: TGI

* CS[C@@]1(C(=O)Nc2ccc3[nH]nc(-c4ccc(OC(C)C)nc4)c3c2)CCN(CC(=O)N2CC=C(c3ccc(-c4ncn(C)n4)cc3)CC2)C1 | > 100 µM
* CS(=O)(=O)OCc1c(O)c2c(c(O)c1COS(C)(=O)=O)C(=O)C=CC2=O | > 100 µM
* CC(C)(C)C[P+](C)(C)c1ccccc1 | > 100 µM
* COC(=O)c1ccc(NCc2cc(O)ccc2O)cc1O | 34.4 µM
* C[C@@H]1CN2[C@H]3[C@@H]1CC[C@]31CCC(=O)O[C@]1(C)[C@@H]1CC[C@H]3CCC=C3[C@@H]12 | > 70 µM
* COc1c2ccoc2c(S(=O)(=O)Nc2ccc(Cl)cc2)c2oc(C)cc(=O)c12 | > 100 µM
* COc1ccc2[nH]c3c(C)c4cnccc4c(C)c3c2c1 | 3.41 µM
* CC[C@H](C)[C@H](NC(=O)C12CC(NC(C)=O)(C1)C2)C(=O)N(C)[C@H](C[C@@H](OC(C)=O)c1nc(C(=O)N[C@@H](Cc2ccccc2)C[C@H](C)C(=O)OC)cs1)C(C)C | > 5.52 µM
* CCCC(=O)OCC(O)CO (centres undefined) | > 5000 µM

----------
tested on: CAKI-1 renal; test: NCI tumour cell line growth inhibition, 48 h
Examples of compounds with documented TGI follow.
assay-endpoint: TGI

• Cc1ccccc1NC(=O)C(=O)Cc1cnc2ccccc2n1 = > 100 µM
• CC[N+](CC)(CC)/C(=N/S(=O)(=O)c1cc(C)c(Cl)cc1S)[N-]S(=O)(=O)c1ccc(Cl)cc1 = > 100 µM
• C[C@]12CCCC(=O)C1C[C@H](C(=O)O)CC2 (some centres not stated) = > 100 µM
• CCCC(=O)OCC(O)CO (configuration not stated) = > 5000 µM
• COc1cc(C2C(C#N)=C(N)Oc3cc4c(cc32)OCO4)cc2c1OCO2 (configuration not stated) = > 100 µM
• CCCCCCC1N=C(N)N=C(N)N1c1ccc(Cl)cc1 (configuration not stated) = > 100 µM
• CC12C(=O)N(CCN)C(=O)C1C1c3ccccc3C2c2ccccc21 (configuration not stated) = > 100 µM
• Nn1c(N=Nc2c(O)[nH]c3ccccc23)n[nH]c1=S = > 100 µM
• Oc1[nH]c2ccccc2c1N=NC(=S)N1CCCC1 = 10.8 µM
• CC(C)CNc1nc(N=[N+]=[N-])nc(NCC(C)C)n1 = > 10 µM
• CCOC(=O)CNC(=O)C(CSC(=O)N(C)O)NC(=O)CCC(N)C(=O)O (configuration not stated) = > 2000 µM
• Brc1ccc(Br)nn1 = 5.07 µM

----------
system: OVCAR-8 ovarian; experiment: NCI tumour cell line growth inhibition, 48 h
assay-endpoint: TGI

• c1ccc2c3nnc(c2c1)SCCSCCCSCCS3 = > 100 µM
• O=C(CCc1cccc(O)c1)NCCc1cccc(OCc2ccccc2)c1 = 67.9 µM
• CCCCCn1cnc2c1S(=O)(=O)N(C)C(NC(=O)c1ccccc1)=N2 = > 100 µM
• Cc1onc(-c2c(F)cccc2Cl)c1C(=O)N[C@@H]1C(=O)N2[C@@H]1SC(C)(C)[C@@H]2C(=O)O = > 100 µM
• CCCCOc1ccc(S(=O)(=O)/N=C(\NN)Nc2ccc(Cl)cc2)cc1 = 36.2 µM
• C=C1CO[C@@H]2C[C@@H]1CC/C(C)=C/CC/C(C)=C/CC[C@@]2(C)O = 44.8 µM
• CCOC(=O)C1CC/C(=C(/C#N)C(=O)OC)N1 (stereo unspecified) = > 100 µM
• COc1nc2c(c(=O)n1C)NC(C(O)C(O)CO)C=N2 (stereo unspecified) = > 10 µM
• O=C1CCC(=O)C(C(=O)CCC(=O)Nc2cccc(Cl)c2)C1 (stereo unspecified) = > 100 µM
• O=S(Cc1cc2c(cc1Br)OCO2)c1ccccc1 (stereo unspecified) = > 100 µM
• NC(=O)C(=CN1CC(=O)NC1=S)C(N)=O = > 100 µM

----------
The entries below come with measured TGI values attached.
tested on: MOLT-4 leukemia; experiment: NCI tumour cell line growth inhibition, 48 h
assay-endpoint: TGI

* O=P1(O)c2ccccc2CS(=O)(=O)Cc2ccccc21 | > 100 µM
* COc1ccc2[nH]c3c(C)c4cnccc4c(C)c3c2c1 | > 10 µM
* Cc1cc(=O)oc2c(CNC(C(=O)O)C(C)O)c(O)ccc12 (stereo unspecified) | > 100 µM
* CCOC(=O)[C@H]1C[C@]23CN(C(=O)OC(C)(C)C)CC[C@H]2CCC2(SCCCS2)[C@@H]3N1C | > 100 µM
* CC1(C)O[C@@H](CP(c2ccccc2)c2ccccc2)[C@H](CP(c2ccccc2)c2ccccc2)O1 | > 100 µM
* C[C@]12CCCC(=O)C1C[C@H](C(=O)O)CC2 (stereo partly specified) | > 100 µM
* O=C1N[C@@H]2c3c(Br)sc(Br)c3C(=O)[C@@H]2N1 | 9.08 µM
* CC(=O)/C=C/C1=C(c2ccsc2)c2ccccc2CC1 | 37.1 µM
* O=C(CC1(O)C(=O)Nc2c(Cl)ccc(Cl)c21)c1ccc(C2CC2)cc1 (stereo unspecified) | 18.1 µM
* Cc1cc2c(C(C)C)c(O)c(O)c(C=O)c2c(O)c1-c1c(C)cc2c(C(C)C)c(O)c(O)c(C=O)c2c1O (tested in a mixture with another compound) | 13.6 µM
* NC1=NS(=O)(=O)Nc2nc(-c3cccs3)[nH]c21 | > 100 µM
* C=CCC1=CC2(OC)C(=O)C(OC)(OC)C1C1C(OC)(OC)C(=O)C(OC)=CC12CC=C (stereo unspecified) | > 100 µM
* COC1=CC(=O)c2ccccc2C1(C)C1=NC(C)(C)CO1 (stereo unspecified) | > 100 µM
* N#CC(C#N)=Cc1ccc(-c2ccc(-c3nc4ccccc4o3)cc2)o1 | > 100 µM
* CCOC(=O)c1cn2c([nH]c3ccccc32)c(C#N)c1=O | > 100 µM
* CCCc1ccc(OCC(=O)N/N=C/c2c(-c3ccccc3)[nH]c3ccccc23)cc1 | 30.4 µM
* Cc1cc(-c2nc3cc(F)ccc3s2)ccc1NC(=O)C(C)N (stereo unspecified) | 8.42 µM
* CC(C)(C)OC(=O)N/N=C(/N)c1ccccc1 | > 100 µM
* COc1ccc(C2S/C(=C\c3cccc(O)c3)C(=O)N2NC(=O)Cc2ccccc2)cc1 (stereo unspecified) | > 100 µM
* O=C(NNC(=O)c1ccccc1Cl)c1ccccc1O | > 100 µM
* Cc1cc(C)c(NS(=O)c2cccc([N+](=O)[O-])c2)c(C)c1 (stereo unspecified) | > 100 µM

Measured values drawn from PubChem BioAssay (NCI) for this set.
